Here the recorded pIC50 is given for each entry.
experimental.system: PD-1/PD-L1 (Homo sapiens (Human))
Sequence (Q9NZQ7 19-238): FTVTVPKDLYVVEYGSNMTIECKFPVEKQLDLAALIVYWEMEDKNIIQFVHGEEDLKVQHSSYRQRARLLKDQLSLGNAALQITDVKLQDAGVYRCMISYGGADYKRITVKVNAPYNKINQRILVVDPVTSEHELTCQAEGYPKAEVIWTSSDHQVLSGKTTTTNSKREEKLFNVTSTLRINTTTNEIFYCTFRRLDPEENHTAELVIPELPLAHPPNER
protocol.summary: PD-1/PD-L1 biochemical protein-protein interaction assay (ALPHA)
test.conditions: 0.3 nM His tagged PD-L1, 2.5 nM biotinylated Fc-PD-1, 60 minutes at 25° C., read-out: IC50 PD-L1-PD1
Value format note: pIC50 is -log10 of concentration (mol/L); just state the number.

Here's what some known entries look like.
| compound | reported.result |
| --- | --- |
| CCC(=O)NC1CCN(Cc2ncc(-c3cccc(-c4cccc(-c5cnc(CNC[C@@H]6CCC(=O)N6)c(OC)n5)c4Cl)c3Cl)nc2OC)C1 (stereo partly drawn) | 10.07 |
| COc1nc(-c2cccc(-c3cccc(-c4cnc(CNC[C@@H]5CCC(=O)N5)c(OC)n4)c3Cl)c2Cl)cnc1CNCCC1CCCO1 (stereo partly drawn) | 10.19 |

Field: next compound
Task: Using known records, supply pIC50 for COc1nc(-c2cccc(-c3cccc(-c4cnc(CNCC5(O)CCS(=O)(=O)C5)c(OC)n4)c3Cl)c2Cl)cnc1CNC[C@@H]1CCC(=O)N1 (stereo partly drawn)
Result: 10.22

###

Here the recorded log10 IC50 is given for each entry.
experimental.system: PD-1/PD-L1 (Homo sapiens (Human))
protocol.summary: PD-1/PD-L1 biochemical protein-protein interaction assay (ALPHA)
test.conditions: 0.3 nM His tagged PD-L1, 2.5 nM biotinylated Fc-PD-1, 60 minutes at 25° C., read-out: IC50 PD-L1-PD1
Field: value | Transform: log10 | Quantity: IC50 | Unit: nM

Here's what some known entries look like.
| compound.string | log10 IC50 |
| --- | --- |
| CCNC(=O)CNCc1ncc(-c2cccc(-c3cccc(-c4cnc(CNC[C@@H]5CCC(=O)N5)c(OC)n4)c3Cl)c2Cl)nc1OC | -0.74 |
| COc1nc(-c2cccc(-c3cccc(-c4cnc(CNC56CC(C5)C6)c(OC)n4)c3Cl)c2Cl)cnc1CNC[C@@H]1CCC(=O)N1 | 0.17 |
| COc1nc(-c2cccc(-c3cccc(-c4cnc(CN5CC(C)(CO)C5)c(OC)n4)c3Cl)c2Cl)cnc1CN1CC(C)(CO)C1 | -1.22 |
| COc1nc(-c2cccc(-c3cccc(-c4cnc(CN[C@H]5C[C@](C)(O)C5)c(OC)n4)c3Cl)c2Cl)cnc1CNC[C@@H]1CCC(=O)N1 | -0.70 |
| COc1nc(-c2cccc(-c3cccc(-c4cnc(CN[C@@H]5C[C@H]5CO)c(OC)n4)c3Cl)c2Cl)cnc1CNC[C@@H]1CCC(=O)N1 | -0.57 |

Task: Using known records, supply log10 IC50 for "COc1nc(-c2cccc(-c3cccc(-c4cnc(CN5CC(C)(O)C5)c(OC)n4)c3Cl)c2Cl)ccc1CNC[C@@H]1CCC(=O)N1"
Result: -1.19

Task: Using known records, supply log10 IC50 for "COc1nc(-c2cccc(-c3cccc(-c4cnc(CN5CCN[C@H](C)C5)c(OC)n4)c3Cl)c2Cl)cnc1CNC[C@@H]1CCC(=O)N1"
Result: -1.15

Task: Using known records, supply log10 IC50 for "COc1nc(-c2cccc(-c3cccc(-c4cnc(CN[C@@H]5CCOC5)c(OC)n4)c3Cl)c2Cl)cnc1CN[C@@H]1CCOC1"
Result: -0.39

Task: Using known records, supply log10 IC50 for "COc1nc(-c2cccc(-c3cccc(-c4cnc(CNCC(C)(C)NC(C)=O)c(OC)n4)c3Cl)c2Cl)cnc1CNC[C@@H]1CCC(=O)N1"
Result: -0.68

Task: Using known records, supply log10 IC50 for "COc1nc(-c2cccc(-c3cccc(-c4cnc(CN(C)C[C@@H]5CCC(=O)N5)c(OC)n4)c3Cl)c2Cl)cnc1CNC[C@@H]1CCC(=O)N1"
Result: -0.44

Task: Using known records, supply log10 IC50 for "COc1nc(-c2cccc(-c3cccc(-c4cnc(CN5CC[C@](C)(O)C5)c(OC)n4)c3Cl)c2Cl)cnc1CN1CC[C@](C)(O)C1"
Result: -0.70

Task: Using known records, supply log10 IC50 for "COc1nc(-c2cccc(-c3cccc(-c4cnc(CN5CC(NS(C)(=O)=O)C5)c(OC)n4)c3Cl)c2Cl)cnc1CNC[C@@H]1CCC(=O)N1"
Result: -0.92

Task: Using known records, supply log10 IC50 for "COc1nc(-c2cccc(-c3cccc(-c4cnc(CNCC[C@@H]5CNC(=O)C5)c(OC)n4)c3Cl)c2Cl)cnc1CNCC[C@@H]1CNC(=O)C1"
Result: -0.70

Task: Using known records, supply log10 IC50 for "COc1nc(-c2cccc(-c3cccc(-c4cnc(CNC[C@@H]5CCC(=O)N5)c(OC)n4)c3Cl)c2Cl)cnc1CNCCOc1ccccn1"
Result: -1.00

###

experimental.system: PD-1/PD-L1 (Homo sapiens (Human))
protocol.summary: PD-1/PD-L1 biochemical protein-protein interaction assay (ALPHA)
test.conditions: 0.3 nM His tagged PD-L1, 2.5 nM biotinylated Fc-PD-1, 60 minutes at 25° C., read-out: IC50 PD-L1-PD1
quantity.name: IC50 (nM)
Your answer is read as nM, so omit the unit and give the number.

Here's what some known entries look like.
| compound.string | unit.symbol | reported.result |
| --- | --- | --- |
| COc1nc(-c2cccc(-c3cccc(-c4cnc(CN)c(OC)n4)c3Cl)c2Cl)ccc1C1=NCCN1 | nM | 0.064 |
| Cc1nc(-c2cccc(-c3cccc(-c4cnc(CN5CC6(CCC(=O)N6)C5)c(C)n4)c3Cl)c2Cl)cnc1CN1CC2(CCC(=O)N2)C1 | nM | 0.233 |

Field: next compound
Task: Using known records, supply IC50 for "CNCc1ncc(-c2cccc(-c3cccc(-c4cnc(CNC)c(OC)n4)c3Cl)c2Cl)nc1OC"
Result: 0.175

###

experimental.system: PD-1/PD-L1 (Homo sapiens (Human))
protocol.summary: PD-1/PD-L1 biochemical protein-protein interaction assay (ALPHA)
test.conditions: 0.3 nM His tagged PD-L1, 2.5 nM biotinylated Fc-PD-1, 60 minutes at 25° C., read-out: IC50 PD-L1-PD1
Here the recorded pIC50 is given for each entry.
Value format note: pIC50 is -log10 of concentration (mol/L); just state the number.

| molecule | reported.result |
| --- | --- |
| COc1nc(-c2cccc(-c3cccc(-c4cnc(CNC[C@H]5CCC(=O)N5)c(OC)n4)c3Br)c2Cl)cnc1CNC[C@H]1CCC(=O)N1 | 9.61 |
| COc1nc(-c2cccc(-c3cccc(-c4cnc(CN5CCC(C)(O)C5)c(OC)n4)c3Cl)c2Cl)cnc1CNC[C@@H]1CCC(=O)N1 (stereo partly shown) | 9.66 |
| COc1nc(-c2cccc(-c3cccc(-c4cnc(CNCCNS(C)(=O)=O)c(OC)n4)c3Cl)c2Cl)cnc1CNCCNS(C)(=O)=O | 10.19 |

Field: next molecule
Task: Using known records, supply pIC50 for "COc1nc(-c2cccc(-c3cccc(-c4cnc(CN[C@H]5C[C@@H](CO)C5)c(OC)n4)c3Cl)c2Cl)cnc1CNC[C@@H]1CCC(=O)N1"
Result: 10.03

###

experimental.system: PD-1/PD-L1 (Homo sapiens (Human))
protocol.summary: PD-1/PD-L1 biochemical protein-protein interaction assay (ALPHA)
test.conditions: 0.3 nM His tagged PD-L1, 2.5 nM biotinylated Fc-PD-1, 60 minutes at 25° C., read-out: IC50 PD-L1-PD1
Note to self: use label 1 only for IC50 readings below 0.1 nM; a reading exactly at 0.1 nM still gets label 0.

For orientation, consider the following solved cases.
| compound | answer.label |
| --- | --- |
| COc1nc(-c2cccc(-c3cccc(-c4cnc(CNCC[C@@H]5CCC(=O)N5)c(OC)n4)c3Cl)c2Cl)cnc1CNCC[C@@H]1CCC(=O)N1 | label 1 |
| COc1nc(-c2cccc(-c3cccc(-c4cnc(CNC5CCC(F)C5)c(OC)n4)c3Cl)c2Cl)cnc1CNC[C@@H]1CCC(=O)N1 (some centres unmarked) | label 0 |
| COc1nc(-c2cccc(-c3cccc(-c4cnc(CN5C6COCC5C6)c(OC)n4)c3Cl)c2Cl)cnc1CNC[C@@H]1CCC(=O)N1 | label 0 |
| COc1nc(-c2cccc(-c3cccc(-c4cnc(CN[C@H]5C[C@@H](C(N)=O)C5)c(OC)n4)c3Cl)c2Cl)cnc1CNC[C@@H]1CCC(=O)N1 | label 0 |

Now for another entry.
Task: Please indicate whether the reported IC50 of "COc1nc(-c2cccc(-c3cccc(-c4cnc(CNC[C@@H]5CCC(=O)N5)c(OC)n4)c3Cl)c2Cl)ccc1C1=NCCN1" is strictly below 0.1 nM.
Result: label 0
